The measurements presented in this section are drawn from paper PMC11882969.

Tgt: hCB1 (Homo sapiens, UniProt P21554)
Sequence (P21554 whole entry): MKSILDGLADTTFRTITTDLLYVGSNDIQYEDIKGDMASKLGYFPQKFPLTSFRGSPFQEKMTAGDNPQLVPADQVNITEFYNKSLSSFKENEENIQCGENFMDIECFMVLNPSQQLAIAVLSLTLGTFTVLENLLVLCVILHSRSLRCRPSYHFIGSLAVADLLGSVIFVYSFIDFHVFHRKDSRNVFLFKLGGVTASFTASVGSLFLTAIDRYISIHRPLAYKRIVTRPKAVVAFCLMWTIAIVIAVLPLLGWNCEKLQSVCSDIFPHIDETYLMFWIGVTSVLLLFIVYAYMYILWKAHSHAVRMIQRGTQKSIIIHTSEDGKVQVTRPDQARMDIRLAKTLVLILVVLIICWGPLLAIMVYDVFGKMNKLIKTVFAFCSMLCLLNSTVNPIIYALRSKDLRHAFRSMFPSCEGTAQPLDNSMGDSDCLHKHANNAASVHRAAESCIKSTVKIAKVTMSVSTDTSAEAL
Assay: bioSensAll ebBRET signaling profiling, hCB1
Type: cell-based
Design: host or cells: HEK293SL cells, transient PEI transfection
Details: Barr2+GRK2 biosensor; Log [Compound] (M) -11.9208

Compound: Cn1nc(-c2nnc(C(C)(C)Oc3ccc(Cl)cc3)o2)c2ccccc2c1=O
Barr2+GRK2 hCB1 response: -49.1537
//
Compound: Cc1nn(Cc2ccc(Cl)cc2)c(C)c1C(=O)OCC1CSc2ccccc2O1 (stereo not drawn)
Barr2+GRK2 hCB1 response: -24.266
//
Compound: Cn1nc(-c2nnc(C(C)(C)Oc3ccc(C(F)(F)F)cc3)o2)c2ccccc2c1=O
Barr2+GRK2 hCB1 response: -20.4371
//
Compound: Cc1nc(CC2CC2)oc1-c1nc(Cc2cc3c(cc2Br)OCO3)no1
Barr2+GRK2 hCB1 response: -22.6706
//
Compound: Brc1cc2c(cc1Cc1noc(-c3cnn(CC4CC4)c3)n1)OCO2
Barr2+GRK2 hCB1 response: -46.9202
//
Compound: Cc1c(C(=O)OCC2CSc3ccccc3O2)cnn1Cc1ccccc1 (stereo not drawn)
Barr2+GRK2 hCB1 response: -40.5387

---

Tgt: hCB1 (Homo sapiens)
Assay: bioSensAll ebBRET signaling profiling, hCB1
Format: cell-based
Set-up: host or cells: HEK293SL cells, transient PEI transfection
Details: Log [Compound] (M) -12.8861; single replicate values, FigS6a

Molecule: COC(=O)[C@@H]1[C@@H]2CC[C@@H]2CN1C(=O)c1cc(C)n(-c2cccc(C(F)(F)F)c2)n1
Gi1 hCB1: 0.4436
--
Molecule: COC(=O)[C@@H]1[C@@H]2CCC[C@@H]2CN1C(=O)c1cc(C)n(-c2cccc(C(F)(F)F)c2)n1
Gi1 hCB1: 1.631
--
Molecule: Cn1nc(-c2nnc(C(C)(C)Oc3ccc(Cl)cc3)o2)c2ccccc2c1=O
Gi1 hCB1: -4.653
--
Molecule: Cc1cc(C(=O)NC(c2ccccc2)c2ccco2)nn1-c1cccc(C(F)(F)F)c1 (centres unmarked)
Gi1 hCB1: 2.432
--
Molecule: Cc1nc(CC2CC2)oc1-c1nc(Cc2cc3c(cc2Br)OCO3)no1
Gi1 hCB1: 0.8586
--
Molecule: Cc1cc(C(=O)N(C)C(c2ccccc2)c2ccco2)nn1-c1cccc(C(F)(F)F)c1 (centres unmarked)
Gi1 hCB1: -0.6818
--
Molecule: COC(=O)C(NC(=O)c1cc(C)n(-c2cccc(F)c2)n1)c1cccs1 (centres unmarked)
Gi1 hCB1: -0.466
--
Molecule: Cc1cc(C(=O)NC(c2ccccc2)c2ccco2)nn1-c1cccc(C#N)c1 (centres unmarked)
Gi1 hCB1: 1.43
--
Molecule: Cc1cc(C(=O)N2CC3(CCC3)[C@@H]2[C@H]2CCCO2)nn1-c1cccc(C(F)(F)F)c1 (single isomer, unassigned)
Gi1 hCB1: 0.2586
--
Molecule: Brc1cc2c(cc1Cc1noc(-c3cnn(CC4CC4)c3)n1)OCO2
Gi1 hCB1: -1.992
--
Molecule: Cc1cc(C(=O)N2CC3(CCC3)[C@H]2[C@@H]2CCCO2)nn1-c1cccc(C(F)(F)F)c1
Gi1 hCB1: 2.556
--
Molecule: Cn1nc(-c2nnc(C(C)(C)Oc3ccc(C(F)(F)F)cc3)o2)c2ccccc2c1=O
Gi1 hCB1: -6.854
--
Molecule: COc1cccc(C(NC(=O)c2cc(C)n(-c3cccc(C(F)(F)F)c3)n2)c2ccco2)c1 (centres unmarked)
Gi1 hCB1: 2.001
--
Molecule: Cc1cc(C(=O)N2CC3(CCC3)[C@H]2[C@H]2CCCO2)nn1-c1cccc(C(F)(F)F)c1
Gi1 hCB1: 4.113
